Values from patent US20110086806A1

Some binders, each annotated with its measured Ratio IC50 to 056-53.H4E IC50.
# system tested: T1, recombinant human IL-23R/Fc chimera (R&D Systems) (human, UniProt Q5VWK5 24-355)
# T1 construct: Bought; also called rhIL23RFc
# T1 sequence (looked up): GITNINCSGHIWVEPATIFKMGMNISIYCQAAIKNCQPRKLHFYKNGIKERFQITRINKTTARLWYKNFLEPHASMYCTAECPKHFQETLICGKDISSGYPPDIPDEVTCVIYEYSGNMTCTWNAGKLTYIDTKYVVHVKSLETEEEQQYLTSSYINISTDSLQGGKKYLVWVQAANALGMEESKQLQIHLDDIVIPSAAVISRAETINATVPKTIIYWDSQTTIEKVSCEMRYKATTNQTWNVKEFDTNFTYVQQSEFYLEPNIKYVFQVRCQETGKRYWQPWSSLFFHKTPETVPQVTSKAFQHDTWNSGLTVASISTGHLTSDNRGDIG
# assay summary: competition ELISA vs IL-23
Answer with the value's number alone.

{"binder": "101-51-1A4 ATRIMER complex (designed binder, Forms a homotrimer through the tetranectin coiled coil; one protomer is given., not shown: C-terminal tag: His/Myc (pANA4) or HA-StrepII (pANA10)) EPPTQKPKKIVNAKKDVVNTKMFEELKSRLDTLAQEVALLKEQQALQTVCLKGTKVHMKCFLAFTQTKTFHEASEDCISRGGTLSTPQTGSENDALYEYLRQSVGNEAEIWLGLNGSALTNTWVDMTGARIAYKNWERPALVQPRGGFGVFGENCAVLSGAANGKWFDKRCRDQLPYICQFGIV", "measured number": 1}
{"binder": "105-08-1D3 ATRIMER complex (designed binder) EPPTQKPKKIVNAKKDVVNTKMFEELKSRLDTLAQEVALLKEQQALQTVCLKGTKVHMKCFLAFTQTKTFHEASEDCISRGGTLSTPQTGSENDALYEYLRQSVGNEAEIWLGLNGSKVTETWVDMTGARIAYKNWETEITAQPDGGFGYFGENCAVLSGAANGKWFDKRCRDQLPYICQFGIV", "measured number": 0.4}

Kindly consider the entry below.
Request: Given 101-51-1A6 ATRIMER complex (designed binder, Forms a homotrimer through the tetranectin coiled coil; one protomer is given., not shown: C-terminal tag: His/Myc (pANA4) or HA-StrepII (pANA10)) EPPTQKPKKIVNAKKDVVNTKMFEELKSRLDTLAQEVALLKEQQALQTVCLKGTKVHMKCFLAFTQTKTFHEASEDCISRGGTLSTPQTGSENDALYEYLRQSVGNEAEIWLGLNGSALTNTWVDMTGARIAYKNWENNLSAQPRGGFGYFGENCAVLSGAANGKWFDKRCRDQLPYICQFGIV , state its recorded Ratio IC50 to 056-53.H4E IC50.
Result: 2.6
